B1: INTS3 (parent)
chain: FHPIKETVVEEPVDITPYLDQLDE

variants of: B1; test: protein stability index of a GFP-peptide fusion (GPS, HEK-293T) (PSI 1-6); higher = more stable; conditions: c terminus: a fixed tail appended;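 note: lentivirally expressed fusions sorted by FACS into six bins by GFP to DsRed ratio, PSI derived from sequencing read proportions per bin multiplied by bin number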
Below, each of the variants is paired with its reported protein stability index value.
READOUT LABEL: protein stability index

1. L19F = 3.02
2. Q21L = 3.05
3. T7Y = 2.88
4. L22P = 3.61
5. L22K = 3.7
6. T16R = 2.84
7. I15C = 3.49
8. V9L = 3.19
9. I4P = 2.96
10. E24Q = 2.7
11. D14E = 3.18
12. P12G = 3.58
13. E10Q = 2.99
14. E6M = 2
15. Q21H = 3.26
16. D20Q = 2.41
17. P17G = 3.46
18. E10H = 2.56
19. P3G = 4.49
20. I4T = 3.9
21. E24Y = 2.47
22. D14N = 3.04
23. V9H = 3.05
24. H2R = 4.81
25. H2M = 4.87
26. E10L = 2.69
27. T16D = 3.79
28. E10S = 2.54
29. I15Q = 3.79
30. D14C = 3.12
31. T16G = 3.44
32. P17M = 3.17
33. E10T = 2.56
34. I15A = 3.43
35. T7Q = 3.26
36. D23S = 2.68
37. P17H = 3.63
38. D20F = 2.41
39. E24L = 2.85
40. L19R = 3.14
41. P12N = 3.57
42. F1A = 5.42
43. D23P = 3.02
44. F1R = 5.18
45. E6R = 1.98
46. H2E = 5.26
47. L19W = 2.56
48. I15Y = 3.3
49. Y18A = 3.58
50. P3L = 3.14
51. H2D = 5.42
52. K5Y = 2.83
53. F1H = 5.5
54. L22V = 3.41
55. D20H = 3
56. L22S = 3.13
57. D14R = 2.62
58. Y18G = 3.69
59. D20R = 2.96
60. T7V = 3.12
61. V9I = 3.04
62. E11C = 2.78
63. D23N = 2.8
64. L22M = 2.57
